Assay: CEETOX_H295R_MTT_cell_viability: Viability Assessment in the CeeTox HT-H295R MTT Assay (AID 2283718)
The source made the active and inactive calls. The calls were made as follows: active = hit-call score of the fitted dose curve at least 0.9, where 1 is the maximum; inactive = score below 0.9.
Possible outcomes: active, inactive

- compound: "COP(=S)(OC)SCN1C(=O)c2ccccc2C1=O"
  qualitative.label: "inactive"
- compound: "Nc1ccc(Cc2ccc(N)cc2)cc1"
  qualitative.label: "active"
- compound: "CCC(C)c1ccc(O)cc1 (stereo unspecified)"
  qualitative.label: "inactive"
- compound: "CC(C)COC(=O)c1ccccc1C(=O)OCC(C)C"
  qualitative.label: "inactive"
- compound: "CCCCCOC(=O)c1ccccc1C(=O)OCCCCC"
  qualitative.label: "inactive"
- compound: "Cn1cc(-c2ccccc2)c(=O)c(-c2cccc(C(F)(F)F)c2)c1"
  qualitative.label: "inactive"
- compound: "[As]#[In]"
  qualitative.label: "inactive"
- compound: "Cc1cc(N=Nc2ccccc2C)ccc1N"
  qualitative.label: "inactive"
- compound: "O=C(Nc1ccccc1)c1ccccc1I"
  qualitative.label: "inactive"
- compound: "CC(C)(O)c1cnn2c(-c3ccc(F)c(-c4c(F)cccc4C#N)c3)cnc2n1"
  qualitative.label: "inactive"
- compound: "Oc1ccc2ccc3cccc4ccc1c2c34"
  qualitative.label: "inactive"
- compound: "c1ccc(N=Nc2ccccc2)cc1"
  qualitative.label: "inactive"
- compound: "CCCCOC(=O)c1ccccc1C(=O)OCc1ccccc1"
  qualitative.label: "inactive"
- compound: "Nc1ccc(Cl)cc1N"
  qualitative.label: "inactive"
- compound: "CNC(=O)Oc1cccc2c1OC(C)(C)C2"
  qualitative.label: "active"
- compound: "C=CCc1ccc2c(c1)OCO2"
  qualitative.label: "inactive"
- compound: "Cc1ccc(N)c(N)c1"
  qualitative.label: "inactive"
- compound: "CCOc1cccc(C2(N3CCN(c4ccccc4)CC3)CCC(C)CC2)c1 (stereo unspecified)"
  qualitative.label: "inactive"
- compound: "c1ccc2c(c1)-c1cccc3cccc-2c13"
  qualitative.label: "inactive"
- compound: "CCOC(=O)[C@]1(c2ccccc2)Oc2ccccc2[C@@H]1N"
  qualitative.label: "inactive"
- compound: "C[C@]12C=CC3=C4CCC(=O)C=C4CC[C@H]3[C@@H]1CC[C@@H]2O"
  qualitative.label: "inactive"

* * *

Experiment: BSK_3C_VCAM1: BioMAP Diversity Plus: 3C Assay for Vascular cell adhesion molecule 1 (VCAM1) Biomarker Activity (AID 2282999)
Details: BioMAP 3C HUVEC, VCAM1 ELISA, cytokine-stimulated; actives raise or lower the signal
Active and inactive are the calls of the source. The calls were made as follows: active = hit-call score of the fitted dose curve at least 0.9, where 1 is the maximum; inactive = score below 0.9.
Classes used: T (active), F (inactive)

- compound: "CCCSC(=O)N(CCC)CCC"
  qualitative.label: "F"
- compound: "c1ccc(C2CO2)cc1 (stereo not drawn)"
  qualitative.label: "F"
- compound: "CC(C)(C)OOC(=O)c1ccccc1"
  qualitative.label: "F"
- compound: "CCC(C)c1ccc(O)cc1 (stereo not drawn)"
  qualitative.label: "F"
- compound: "[Cl-].[Cl-].[Hg+2]"
  qualitative.label: "T"
- compound: "CC(C)(C)OOC(C)(C)CCC(C)(C)OOC(C)(C)C"
  qualitative.label: "F"
- compound: "c1ccc2c(c1)oc1ccccc12"
  qualitative.label: "F"
- compound: "Clc1ccc(Cl)c(Cl)c1"
  qualitative.label: "F"
- compound: "Cc1cccc(N)c1N"
  qualitative.label: "T"
- compound: "COC(=O)c1ccccc1N"
  qualitative.label: "F"
- compound: "CCOC(=O)[C@]1(c2ccccc2)Oc2ccccc2[C@@H]1N"
  qualitative.label: "F"
- compound: "Clc1ccc(C(c2ccc(Cl)cc2)C(Cl)(Cl)Cl)cc1"
  qualitative.label: "T"
- compound: "O=C(N[C@H](c1ccccc1)[C@@H]1CN2CCC1CC2)c1c(Cl)ccc(C(F)(F)F)c1Cl"
  qualitative.label: "F"
- compound: "C[C@]12C=CC3=C4CCC(=O)C=C4CC[C@H]3[C@@H]1CC[C@@H]2O"
  qualitative.label: "T"
- compound: "CCN(CC)CCO"
  qualitative.label: "F"
- compound: "O=[N+]([O-])C(Br)(CO)CO"
  qualitative.label: "T"
- compound: "CCCCCCCCOC(=O)c1ccc(C(=O)OCCCCCCCC)c(C(=O)OCCCCCCCC)c1"
  qualitative.label: "F"
- compound: "CNC(=O)Oc1cccc2c1OC(C)(C)C2"
  qualitative.label: "F"
- compound: "C1=Cc2cccc3cccc1c23"
  qualitative.label: "F"
- compound: "CCCCOC(=O)c1ccccc1C(=O)OCc1ccccc1"
  qualitative.label: "F"
- compound: "CCCCCCCCCCCCCN1CC(C)OC(C)C1 (stereo not drawn)"
  qualitative.label: "F"
- compound: "OCCCl"
  qualitative.label: "F"
- compound: "Nc1ccc([N+](=O)[O-])cc1"
  qualitative.label: "F"
- compound: "Cn1cc(-c2ccccc2)c(=O)c(-c2cccc(C(F)(F)F)c2)c1"
  qualitative.label: "F"
- compound: "Nc1ccc(Oc2ccc(N)cc2)cc1"
  qualitative.label: "F"
- compound: "O=C(Oc1ccc(Br)cc1)N1CCN2CCC1CC2"
  qualitative.label: "F"
- compound: "c1ccc2c(c1)-c1cccc3cccc-2c13"
  qualitative.label: "F"
- compound: "CCOc1cccc(C2(N3CCN(c4ccccc4)CC3)CCC(C)CC2)c1 (stereo not drawn)"
  qualitative.label: "F"
- compound: "CO[C@@H]1[C@H](OC(=O)NC(=O)CCl)CC[C@]2(CO2)[C@H]1[C@@]1(C)O[C@@H]1CC=C(C)C"
  qualitative.label: "T"
- compound: "Clc1ccccc1Cl"
  qualitative.label: "F"
- compound: "Cc1cc(N=Nc2ccccc2C)ccc1N"
  qualitative.label: "F"
- compound: "COC(=O)Nc1nc2ccccc2[nH]1"
  qualitative.label: "F"
- compound: "[O-][Cl+]O"
  qualitative.label: "F"
- compound: "C=CCc1ccc2c(c1)OCO2"
  qualitative.label: "F"
- compound: "Oc1ccccc1Cl"
  qualitative.label: "F"
- compound: "Oc1ccc2ccc3cccc4ccc1c2c34"
  qualitative.label: "T"
- compound: "COP(=S)(OC)SCN1C(=O)c2ccccc2C1=O"
  qualitative.label: "F"
- compound: "CCCCC(CC)COC(=O)c1ccc(C(=O)OCC(CC)CCCC)c(C(=O)OCC(CC)CCCC)c1 (stereo not drawn)"
  qualitative.label: "F"
- compound: "CC(O)CCO (stereo not drawn)"
  qualitative.label: "F"
- compound: "O=C(O)C1C2CCC(O2)C1C(=O)O (stereo not drawn)"
  qualitative.label: "T"
- compound: "Cc1ccc(N)cc1"
  qualitative.label: "F"
- compound: "Cc1ccc([N+](=O)[O-])cc1"
  qualitative.label: "F"
- compound: "CN(C)c1ccccc1"
  qualitative.label: "F"
- compound: "ClCCOCCCl"
  qualitative.label: "F"
- compound: "CS(=O)(=O)NC(=O)c1cc(Oc2ccc(C(F)(F)F)cc2Cl)ccc1[N+](=O)[O-]"
  qualitative.label: "F"
- compound: "O=C1CCCO1"
  qualitative.label: "F"
- compound: "O=C(Nc1ccccc1)c1ccccc1I"
  qualitative.label: "F"
- compound: "ClC1=C(Cl)[C@]2(Cl)[C@H]3[C@H]([C@@H]4C=C[C@H]3C4)[C@@]1(Cl)C2(Cl)Cl"
  qualitative.label: "T"
- compound: "CC(C)(OOC(C)(C)c1ccccc1)c1ccccc1"
  qualitative.label: "T"
- compound: "CCCCCOC(=O)c1ccccc1C(=O)OCCCCC"
  qualitative.label: "T"
- compound: "ClC1=C(Cl)C2(Cl)C3C(Cl)C=CC3C1(Cl)C2(Cl)Cl (stereo not drawn)"
  qualitative.label: "T"
- compound: "CN(C)[C@@H]1C(=O)C(C(N)=O)=C(O)[C@@]2(O)C(=O)C3=C(O)c4c(O)cccc4[C@@](C)(O)[C@H]3C[C@@H]12"
  qualitative.label: "F"
- compound: "O=[N+]([O-])c1ccc(Oc2ccc(Cl)cc2Cl)cc1"
  qualitative.label: "F"
